Below: compounds with pIC50 recorded for UniProtKB Q02763 in separate published works.
pIC50: −log10 of the molar value.

Answered cases to consult:
substance-smiles | pIC50
O=C(Cc1cccc2ccccc12)N(CCn1cnc(-c2ccncc2)n1)C1CCCC1 | > 7.30
c1ccc(CO[C@H]2CCC[C@@H]2Nc2nc(-c3ccncc3)nc3ccccc23)cc1 | ≤ 5.00
COc1ccc(-c2nc(-c3ccncc3)nn2CCN(C(=O)Nc2cccc(SC)c2)C2CCCC2)cc1Cl | ≤ 5.00
COc1cc(Nc2ncnc(Nc3cc(C)[nH]n3)n2)cc(OC)c1OC | < 4.90
COc1cc(Nc2ncnc(-n3c(Cl)nc4ccccc43)n2)cc(OC)c1OC | 4.96 to 5.07

For each of the compounds below, note its pIC50.
1. C#Cc1cccc(Nc2ncnc(Nc3cc(OC)c(OC)c(OC)c3)n2)c1
2. COc1cc(Nc2ncnc(Nc3ccc(NCc4ccccc4)cc3)n2)cc(OC)c1OC
3. OCCCNc1nc(-c2ccncc2)nc2ccccc12
4. O=C(Nc1cc(C(F)(F)F)cc(C(F)(F)F)c1)N1CCN(c2nsnc2OCCCc2cccnc2)CC1
5. c1ccc2c(NC3CCCCC3)nc(-c3ccncc3)nc2c1

1. < 4.92
2. < 5.01
3. ≤ 5.00
4. 5.00 to 6.00
5. 5.00 to 6.00

For each of the compounds below, note its pIC50.
1. Cc1nc(-c2ccnc(NCc3ccccc3)c2)nn1CCN(C(=O)Cc1cccc2ccccc12)C1CCCC1
2. COc1cccc(Nc2nc3ccccc3n2-c2ncnc(Nc3cc(OC)c(OC)c(OC)c3)n2)c1
3. COc1cc(Nc2ncnc(-n3c(N[C@H](CO)c4ccccc4)nc4ccccc43)n2)cc(OC)c1OC
4. CCCCOc1nccc(COc2nsnc2N2CCN(C(=O)Nc3cc(C(F)(F)F)cc(C(F)(F)F)c3)CC2)n1
5. COc1ccc(CNc2ncnc(Nc3cc(OC)c(OC)c(OC)c3)n2)cc1
6. Nc1nccc(COc2cccnc2N2CCN(C(=O)Nc3cc(C(F)(F)F)ccc3F)CC2)n1
7. O=C(Nc1ccccc1)Nc1ccc(-c2cnc3nc2NCCCNS(=O)(=O)c2cccc(c2)N3)cc1

6.00 to 7.30
< 5.05
< 5.06
≤ 5.00
< 4.95
> 7.30
≥ 6.00
